These data points were gathered from patent EP0844825B1.

system: tobacco budworm (Heliothis virescens [Fabricius]); assay: Diet test: test chemical incorporated into artificial diet of tobacco budworm larvae, 5-day exposure; assay type: in vivo; settings: Heliothis virescens, feed or water, 120 h, read-out: Percent Mortality
Each entry below carries its recorded mortality at 100 µM.
experimental endpoint: mortality at 100 µM (%)

* OC(c1ccc(C(F)(F)F)cc1)(c1ccc(C(F)(F)F)cc1)C1CCN(Cc2ccc(-c3ccc(Cl)cn3)cc2)CC1 | 100
* OC(c1ccc(OC(F)(F)F)cc1)(c1ccc(OC(F)(F)F)cc1)C1CCN(Cc2ccc(-c3csnn3)cc2)CC1 | 100
* [O-][N+]1(Cc2ccc(OCc3cccnc3)cc2)CCC(C(O)(c2ccc(C(F)(F)F)cc2)c2ccc(C(F)(F)F)cc2)CC1 (stereo not drawn) | 25

----------
Each entry below carries its recorded mortality at 100 µM.
system: tobacco budworm (Heliothis virescens [Fabricius]); experiment: Diet test: test chemical incorporated into artificial diet of tobacco budworm larvae, 5-day exposure; format: in vivo; details: Heliothis virescens, feed or water, 120 h, read-out: Percent Mortality
experimental endpoint: mortality at 100 µM (%)

* Cn1nnc(-c2ccc(CN3CCC(C(O)(c4ccc(OC(F)(F)F)cc4)c4ccc(OC(F)(F)F)cc4)CC3)cc2)n1 [Compound 9] | 100
* [O-][n+]1ccccc1Oc1ccc(C[N+]2([O-])CCC(C(O)(c3ccc(C(F)(F)F)cc3)c3ccc(C(F)(F)F)cc3)CC2)cc1 (stereo not shown) [Compound 56] | 100
* OC(c1ccc(C(F)(F)F)cc1)(c1ccc(C(F)(F)F)cc1)C1CCN(Cc2ccc(Oc3nsnc3Cl)cc2)CC1 [Compound 29] | 60
* Cc1ccnc(Oc2ccc(CN3CCC(C(O)(c4ccc(C(F)(F)F)cc4)c4ccc(C(F)(F)F)cc4)CC3)cc2)c1 [Compound 62] | 100
* [O-][N+]1(Cc2ccc(Oc3ncccn3)cc2)CCC(C(O)(c2ccc(C(F)(F)F)cc2)c2ccc(C(F)(F)F)cc2)CC1 (stereo not shown) [Compound 96] | 100
* OC(c1ccc(C(F)(F)F)cc1)(c1ccc(C(F)(F)F)cc1)C1CCN(Cc2ccc(-c3ccccn3)cc2)CC1 [Compound 43] | 100
* CCn1nnc(-c2ccc(CN3CCC(C(O)(c4ccc(C(F)(F)F)cc4)c4ccc(C(F)(F)F)cc4)CC3)cc2)n1 [Compound 33] | 100
* [O-][N+]1(Cc2ccc(Oc3ccccn3)cc2)CCC(C(O)(c2ccc(C(F)(F)F)cc2)c2ccc(C(F)(F)F)cc2)CC1 (stereo not shown) [Compound 54] | 100
* [O-][n+]1ccccc1-c1ccc(C[N+]2([O-])CCC(C(O)(c3ccc(C(F)(F)F)cc3)c3ccc(C(F)(F)F)cc3)CC2)cc1 (stereo not shown) [Compound 46] | 100
* COc1ccc(CN2CCC(C(O)(c3ccc(OC(F)(F)F)cc3)c3ccc(OC(F)(F)F)cc3)CC2)cc1 [Compound 1] | 100
* Cc1cc(C)n(-c2ccc(CN3CCC(C(O)(c4ccc(OC(F)(F)F)cc4)c4ccc(OC(F)(F)F)cc4)CC3)cc2)n1 [Compound 5] | 100
* CC(Oc1ccc(C[N+]2([O-])CCC(C(O)(c3ccc(C(F)(F)F)cc3)c3ccc(C(F)(F)F)cc3)CC2)cc1)c1ccccn1 (stereo not shown) [Compound 84] | 100
* O=C1OCCN1c1ccc(C[N+]2([O-])CCC(C(O)(c3ccc(C(F)(F)F)cc3)c3ccc(C(F)(F)F)cc3)CC2)cc1 (stereo not shown) [Compound 21] | 10
